# ERP3 values compiled below
Species on record: Oryctolagus cuniculus
TEST DETAILS: Tested for effective refractory period measured at a pacing rate of 3 Hz in vitro with rabbit heart tissue preparations.
Format: functional
Design: unit: %
The answer should be written as a number, with no unit following it.

ERP3 lookup needed for CCCCCN(CC)CCCC(O)c1ccc(NS(C)(=O)=O)cc1 (stereo not given) , thanks. 11.6

Name the recorded ERP3 for CCCCCCCN(C)CCCC(O)c1ccc(NS(C)(=O)=O)cc1 (stereo not given) . 17.2

Could you share which ERP3 value was measured for CCCCCCCCCCN(CC)CCCC(O)c1ccc(NS(C)(=O)=O)cc1 (stereo not given) ? 16.1

Which value of ERP3 has been reported for CC1CCN(CCCC(O)c2ccc(NS(C)(=O)=O)cc2)CC1 (stereo not given) in the records? 10.5

What ERP3 value was documented for this compound, CCCCCCCN(CC)CCC(O)c1ccc(NS(C)(=O)=O)cc1 (stereo not given) ? 39.3
